Listing of recorded growth by entry.
- Tested on: MOLT-4 leukemia
- assay procedure: NCI-60 one-dose screen, 48 h (100 = growth as untreated, 0 = no growth, -100 = all killed)
- condition description: 10 µM unless noted
About 83,000 compounds went through this panel and 20% of them were active in at least one assay; those are over-represented in the sample as a whole.
State the answer as a number, implicitly in %.

{"compound": "NCCSC(c1ccccc1)(c1ccccc1)c1ccccc1", "measured target": "MOLT-4 leukemia", "growth [%]": 3.39}
{"compound": "Cc1ccc(S(=O)(=O)OCC(=O)Nc2ccc(C(=O)O)c(O)c2)cc1", "measured target": "MOLT-4 leukemia", "growth [%]": 57.1}
{"compound": "O=C(c1ccncc1)N1N=C(c2ccc(Cl)cc2)CC1c1c[nH]c2ccccc12 (stereo unspecified)", "measured target": "MOLT-4 leukemia", "growth [%]": 75.1}
{"compound": "CSc1ccccc1C#C/C=C\\C#Cc1ccccc1N1CCCC1=O", "measured target": "MOLT-4 leukemia", "growth [%]": 27.4}
{"compound": "CN(C)C1CCC(NC2=CC(=O)C=CC2=O)CC1 (stereo unspecified)", "measured target": "MOLT-4 leukemia", "growth [%]": 102}
{"compound": "COc1cccc(-c2nc3sccn3c2-c2ccnc(NCCCNS(=O)(=O)c3ccc(F)cc3)n2)c1", "measured target": "MOLT-4 leukemia", "growth [%]": 23.2}
{"compound": "O=C(NCCCN1CCN(CCCNC(=O)C2CCCCC2)CC1)C1CCCCC1", "measured target": "MOLT-4 leukemia", "growth [%]": 94.1}
{"compound": "COc1cc(OC)c(C(=O)/C=C/c2ccc(C(F)(F)F)cc2)c(OC)c1", "measured target": "MOLT-4 leukemia", "growth [%]": 24}
{"compound": "CCC1CCc2nc3sc(C(=O)Nc4ccccc4F)c(N)c3cc2C1 (stereo unspecified)", "measured target": "MOLT-4 leukemia", "growth [%]": 40}
{"compound": "CCC(=O)Nc1ccccc1C#C/C=C\\C#Cc1ccccc1SC", "measured target": "MOLT-4 leukemia", "growth [%]": 40.7}

Now turn to the next compound.
# growth (compound: `NC(=O)NNC(=O)c1ccccc1` ) is 102

* * *

Measured growth, listed per entry.
- Tested on: MCF7 breast
- assay procedure: NCI-60 one-dose screen, 48 h (100 = growth as untreated, 0 = no growth, -100 = all killed)
- condition description: 10 µM unless noted
The panel holds about 83,000 compounds, 20% with a hit somewhere; the sample as a whole holds those more often.
The figure you give is taken to be in %; do not add the unit.

{"compound": "O=C1c2ccccc2C(=O)c2c1oc1oc3c(c(=O)c21)c(=O)n(-c1ccccc1)c1ccccc31", "display unit": "%", "growth": 51.6}
{"compound": "NC(=O)NNC(=O)c1ccccc1", "display unit": "%", "growth": 100}
{"compound": "O=C1CCCCN1CCCCC#Cc1ccccc1C#Cc1ccc([N+](=O)[O-])cc1", "display unit": "%", "growth": 49.6}
{"compound": "CC(=O)Oc1cccc(OC(C)=O)c1OC(C)=O", "display unit": "%", "growth": 88.7}
{"compound": "CN(C)C1CCC(NC2=CC(=O)C=CC2=O)CC1 (stereo unspecified)", "display unit": "%", "growth": 97.9}

Given item `C=C1C(=O)O[C@H]2[C@H]1CC/C(COC(=O)NCCc1ccc(Br)cc1)=C\CC[C@@]1(C)O[C@@H]21` , the value recorded as its growth is 4.4

Reported growth for CCCCn1c(=O)c(C2CNC(=O)c3ccccc3N2)cc2ccccc21 (stereo unspecified) was 99.6

Consider `C=CCn1c(C)nc2ccc(Nc3nc(Nc4ccc(F)cc4)nc4ccccc34)cc21` . Its measured growth is 26.1

Kindly note the recorded growth for `COc1ccc(-c2cn[nH]c2-c2cc(OC)c3c(c2)OCO3)cc1` , which is 13.1

Query `Cn1c(=O)c2c(nc3n2CCN(CCc2ccc(OCCN4CCOCC4)cc2)C3)n(C)c1=O` yields growth of 95.7

* * *

- Tested on: SW-620 colon
- assay procedure: NCI-60 one-dose screen, 48 h
- condition description: 10 µM unless noted
Compounds without any hit were thinned out: in the full panel of roughly 83,000, 20% have a hit. Active and inactive are the calls of the source. Rule for the calls: active = growth percent below 10; inactive = the rest.
Mark one answer only. Choices: yes (1) = active, no (0) = inactive

The following compounds have reported results that may help.
{"compound": "CCN1C(=O)N(CC)C2C1NN=c1s/c(=C\\c3ccccn3)c(=O)n12 (stereo unspecified)", "group label": "no (0)"}
{"compound": "O=S(=O)(NCCCNc1nccc(-c2c(-c3ccccc3)nc3sccn23)n1)c1ccc(F)cc1", "group label": "no (0)"}
{"compound": "CC/C=C\\C[C@H](O)C/C=C1/C(=O)C(Cl)=C[C@@H]1C/C=C\\CCCC(=O)O", "group label": "yes (1)"}
{"compound": "CCSc1nnc(NC(=O)Cc2ccc(Cl)cc2)s1", "group label": "no (0)"}
{"compound": "CC1(C)OC2COC3(C(=O)O)OC(C)(C)OC3C2O1 (stereo unspecified)", "group label": "no (0)"}
{"compound": "COc1ccc(-c2nc(-c3ccccc3)c(-c3ccccc3)n2C2CC2)cc1OC1CCCCC1", "group label": "no (0)"}

Exercise: Given `Cc1oc2ncnc(Nc3ccccc3)c2c1C(=O)NCCO` , state the outcome it received in this test.
Solution: no (0)

Exercise: Recorded test call requested for `COc1ccc(/C=C/C(=O)OCC(=O)NNC(=O)c2ccccc2)cc1OC`
Solution: no (0)

Exercise: For O=C(c1ccccc1)C(Cl)C(Cl)c1ccccc1 (stereo unspecified) , what call appears in the results of this test?
Solution: yes (1)

Exercise: Lab log entry: `O=C1c2ccccc2C(=O)c2c(N=Nc3sc(=O)[nH]c3S)cccc21` — outcome as called in the assay?
Solution: no (0)

Exercise: So what was the verdict on `COc1cc(OC)c(C(=O)/C=C/c2cccc(C#N)c2)c(OC)c1` in this test?
Solution: yes (1)

* * *

- Tested on: CCRF-CEM leukemia
- assay procedure: NCI-60 one-dose screen, 48 h (100 = growth as untreated, 0 = no growth, -100 = all killed)
- condition description: 10 µM unless noted
- Protocol: Growth inhibition of the CCRF-CEM human tumor cell line is measured as a screen for anti-cancer activity. Cells are grown in 96 well plates and exposed to the test compound for 48 hours. Compounds are tested at a single concentration, which is 10^-5 M for most compounds. The reported endpoint is percent growth (GI% or GIPRCNT), where numbers from 0 - 100% represent growth inhibition, and numbers from -100% - 0 represent cell death. For example, a value of 40 represents 60% growth inhibition. […]
Compounds without any hit were thinned out: in the full panel of roughly 83,000, 20% have a hit.
Below: a set of entries, each annotated with reported growth.
The reply should contain only the number, in %.

{"molecule": "CSc1nc(-c2cc3ccccc3o2)cc(-c2ccc(Cl)cc2)c1C#N", "display unit": "%", "growth": 86.8}
{"molecule": "COc1cc(Cn2c(SCC(=O)Nc3ccc(Cl)cc3)nc3ccccc3c2=O)cc(OC)c1OC", "display unit": "%", "growth": 83.1}
{"molecule": "Cc1cc(Nc2nc(C(=O)Nc3ccccc3)nc3ccccc23)n[nH]1", "display unit": "%", "growth": 38.1}
{"molecule": "CC1=CNNc2c3ncnc-3ncn21", "display unit": "%", "growth": 96.1}

For record `Nc1c(C(=O)Nc2cccc(C(F)(F)F)c2)sc2nc3c(cc12)CCCCC3` the listed growth is 61.9

Lab note: `COc1cccc(-c2nc3sccn3c2-c2ccnc(NCCNS(=O)(=O)c3ccccc3)n2)c1` gave growth of 42.6

Value of measured growth for the entry `FC(F)(F)c1cccc(-n2nnc3cnc(Nc4ccc(N5CCCCC5)cc4)nc32)c1` : 34.1

growth measured on `COc1cc(C(=O)CCCl)ccc1O` = 106

molecule `CCCCCCCN(CCCCCCC)C(=N)c1ccc(OC)c2ccccc12` , growth observed: -43.5

Form field growth, entry COC(=O)C(CC(=O)c1ccc(-c2ccccc2)cc1)c1ccccc1 (stereo unspecified) : 49.4

Record CCn1cc(C2NC(=O)c3cc(F)ccc3N2)c2cccc(Cl)c21 (stereo unspecified) . Reported growth: 5.2

* * *

- System: SF-268 CNS
- assay procedure: NCI-60 one-dose screen, 48 h (100 = growth as untreated, 0 = no growth, -100 = all killed)
- condition description: 10 µM unless noted
Compounds without any hit were thinned out: in the full panel of roughly 83,000, 20% have a hit.
readout: growth (%)
Give the value, in units of %, as a plain number.

Consider the following illustrative entries.
{"compound": "COc1cccc2cc(-c3cc4ccccc4[nH]3)/c(=N/C(=S)Nc3ccccc3)oc12", "display unit": "%", "growth": 70.6}
{"compound": "O=C(c1c[nH]c2ccccc12)C(Sc1nc2ccccc2c(=O)[nH]1)c1ccccc1 (stereo not given)", "display unit": "%", "growth": 105}

Form: compound = `CC(C)(C)OC(=O)N[C@@H](Cc1ccccc1)C(=O)N(Cc1ccccc1)C1(C(=O)NCc2ccccc2)CCN(Cc2ccccc2)CC1` ; growth = 58.5

For `COc1cc(OC)cc(-c2n[nH]nc2-c2ccc3c(c2)OCO3)c1` the compound record lists growth as 52

Memo: `Cc1cc(C)c(NC(=O)c2sc3nc4c(cc3c2N)CN(Cc2ccccc2)CC4)c(C)c1` , reported growth: 36.5
